molecular target: UniProt:P21333; assay: FITC-NLX-based FLNA screening assay (FLNA peptide binding assay); conditions: 1 μM compound, 10 nM FITC-NLX
Values of Percent inhibition of FITC-NLX binding, 1 μM greater than or equal to 50% map to true; values below map to false.

Worked set:
COc1cc(C(=O)CC2c3c(cc4c(c3OC)OCO4)CC[N+]2(C)C)cc(OC)c1OC (stereo not shown) [B0037]    true
COc1c2c(cc3c1C(CC(=O)Cc1ccc(C#N)cc1)[N+](C)(C)CC3)OCO2 (stereo not shown) [B0012]    true
COc1ccc(C(=O)CC2c3c(cc4c(c3OC)OCO4)CC[N+]2(C)C)cc1OC.[I-] (stereo not shown) [B0026]    false
COc1ccc(CCC(=O)CC2c3c(cc4c(c3OC)OCO4)CC[N+]2(C)C)c(OC)c1 (stereo not shown) [B0043]    false
COc1ccccc1CCC(=O)CC1c2c(cc3c(c2OC)OCO3)CC[N+]1(C)C (stereo not shown) [B0045]    true

Evaluate COc1c2c(cc3c1C(CC(=O)CCc1ccccc1)N(C)CC3)OCO2 (stereo not shown) [B0050] : Percent inhibition of FITC-NLX binding, 1 μM at minimum 50%?
false

// next record COc1c2c(cc3c1C(CC(=O)CCc1ccc(F)cc1)[N+](C)(C)CC3)OCO2 (stereo not shown) [B0018]
false

----------
target: Bn-VAKGL pentapeptide of filamin A (FLNA) (Homo sapiens); test: FITC-NLX-based FLNA screening assay (FLNA peptide binding assay); conditions: 0.01 μM compound, 10 nM FITC-NLX
For each record, write down the corresponding Percent inhibition of FITC-NLX binding, 0.01 μM.
One number for each entry, in %.

Example entries and their recorded answers appear below.
COc1ccc(C(=O)CC2c3c(cc4c(c3OC)OCO4)CC[N+]2(C)C)c(F)c1.[I-] (stereo not shown)    40.2
COc1ccc(CCC(O)CC2c3c(cc4c(c3OC)OCO4)CCN2C)cc1 (stereo not shown)    34.7
COCOc1ccc(CCC(=O)CC2c3c(cc4c(c3OC)OCO4)CC[N+]2(C)C)cc1.[I-] (stereo not shown)    40.0

In the following, a different molecule is considered.
Requested field: Percent inhibition of FITC-NLX binding, 0.01 μM. Item: COc1cc(CC(=O)CC2c3c(cc4c(c3OC)OCO4)CC[N+]2(C)C)cc(OC)c1OC (stereo not shown)
35.5
